biological target: human TAS2R4 (Homo sapiens); construct: expressed in transfected cells; host or cells: HEK293T-Gα16gust44; test: Calcium imaging assay (FLIPR), HEK293T-Gα16gust44 cells transfected with human TAS2R4; type: cell-based; settings: Time (s) 82.781 (TCA, TLCA: 82.782); note: test concentration or dose not given here
Sequence (Q9NYW5 whole entry): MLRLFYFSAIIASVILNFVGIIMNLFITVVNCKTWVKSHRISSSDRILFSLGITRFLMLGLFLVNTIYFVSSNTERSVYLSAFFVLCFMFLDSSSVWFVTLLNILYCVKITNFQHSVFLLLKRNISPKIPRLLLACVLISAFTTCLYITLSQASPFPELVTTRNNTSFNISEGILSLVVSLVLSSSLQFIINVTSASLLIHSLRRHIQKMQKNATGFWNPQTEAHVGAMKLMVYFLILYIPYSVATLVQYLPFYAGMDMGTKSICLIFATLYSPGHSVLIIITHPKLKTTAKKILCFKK
metric_name: RLU, fluorescence trace
Enter the number, and then the unit.

Reference set, count: 5
- substance_smiles: "C[C@H](CCC(=O)NCC(=O)O)[C@H]1CC[C@H]2[C@@H]3[C@H](O)C[C@@H]4C[C@H](O)CC[C@]4(C)[C@H]3C[C@H](O)[C@]12C"
  test_target: "human TAS2R4 (Homo sapiens)"
  obs_value: "818.87 RLU"
- substance_smiles: "C[C@H](CCC(=O)NCCS(=O)(=O)O)[C@H]1CC[C@H]2[C@@H]3[C@H](O)C[C@@H]4C[C@H](O)CC[C@]4(C)[C@H]3C[C@H](O)[C@]12C"
  test_target: "human TAS2R4 (Homo sapiens)"
  obs_value: "655.873 RLU"
- substance_smiles: "C[C@H](CCC(=O)O)[C@H]1CC[C@H]2[C@@H]3[C@H](O)C[C@@H]4C[C@H](O)CC[C@]4(C)[C@H]3C[C@H](O)[C@]12C"
  test_target: "human TAS2R4 (Homo sapiens)"
  obs_value: "652.14 RLU"
- substance_smiles: "C[C@H](CCC(=O)O)[C@H]1CC[C@H]2[C@@H]3[C@@H](O)C[C@@H]4C[C@H](O)CC[C@]4(C)[C@H]3CC[C@]12C"
  test_target: "human TAS2R4 (Homo sapiens)"
  obs_value: "345.234 RLU"
- substance_smiles: "C[C@H](CCC(=O)NCCS(=O)(=O)O)[C@H]1CC[C@H]2[C@@H]3CC[C@@H]4C[C@H](O)CC[C@]4(C)[C@H]3CC[C@]12C"
  test_target: "human TAS2R4 (Homo sapiens)"
  obs_value: "289.637 RLU"

Pending compound:
**Query** Bench note: what RLU, fluorescence trace did C[C@H](CCC(=O)O)[C@H]1CC[C@H]2[C@@H]3CC[C@@H]4C[C@H](O)CC[C@]4(C)[C@H]3C[C@H](O)[C@]12C show?
**Result** 366.542 RLU
